target: Thrombin (Homo sapiens, UniProt P00734;P00734 P00734:328-363,P00734:364-622); experiment: FP; 20 mM Tris, 140 mM NaCl, 20 mM KCl, 1 mM CaCl2, 1 mM MgCl2, 0.1% Triton X, room temperature
outcomeMeasure: pKd
Answers are plain numbers, as −log10 of the molar value.

- TBA1F (ssDNA, branched DNA-encoded construct: code strand with branching unit BU; aptamer branch …) DNA: CGTCGAGGCCCCTTCTTCTTCGTCTTCTTCTTAGGAGGTGGTGTGGTTGGTTTTACACGTCACGCCTTTTTTTTT: 7.89

Now for the binder whose pKd we want.
Entry GGTTGGTGTGGTTGG (ssDNA) [PC (positive control TBA 15mer)] : reported pKd = ? 8.00
